Biological target: NDM-1 (Klebsiella pneumoniae)
Test: Inhibition of NDM-1 assay (CHROMACEF hydrolysis, absorbance at 442 nm)
Type: biochemical
Details: at 50 μM
Protocol: The ability of the compounds described herein to inhibit NDM-1 was determined in the following way. A Substrate Working Solution was prepared from CRHROMACEF (6 μM) and Tween-20 (0.02% v/v) in water. An Enzyme Working Solution was prepared with NDM-1 (0.5 μg/mL), Hepes (0.1 M), pH 7 and Tween-20 (0.02% v/v). […] […] CHROMACEF 6 M was recorded to start the reaction. […] The change in absorbance ΔΔAbs442nm/min was measured for each inhibitor from the linear slope from each inhibitor concentration.
// bucketize inhibition at 50 µM: low (below 30%), moderate (30% to below 90%), high (90% or more)

compound: CC(=O)NS(=O)(=O)c1ccc2c(c1)N(C(C)=O)CC2
cat: low

(Q) Quick check: band for CC(=O)N1CCc2cc(Cl)c(S(=O)(=O)/C=C(\N)CC(O)c3ccccc3)cc21 (stereo not shown)
(A) high

====

molecular target: NDM-1 (Klebsiella pneumoniae, UniProt C7C422); assay: Inhibition of NDM-1 assay (CHROMACEF hydrolysis, absorbance at 442 nm); assay type: biochemical; details: *estimated or actual from a single point; target not given, values match the NDM-1 IC50 column; read-out: IC50 μM*
Sequence (C7C422 36-270 limits assumed, looked up): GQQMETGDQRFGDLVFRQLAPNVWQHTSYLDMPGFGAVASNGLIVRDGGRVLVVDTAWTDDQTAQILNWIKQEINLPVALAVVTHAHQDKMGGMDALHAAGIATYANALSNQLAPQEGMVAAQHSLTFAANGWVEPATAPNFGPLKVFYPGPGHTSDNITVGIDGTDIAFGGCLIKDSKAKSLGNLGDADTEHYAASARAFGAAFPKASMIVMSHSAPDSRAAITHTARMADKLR
// bucketize IC50: A = under 3 µM, B = from 3 µM up to 60 µM, C = 60 µM and over

Please review the entries below; each comes with its answer.
compound: CC(=O)N1CCc2cc(Br)c(S(=O)(=O)/N=C(\N)CC3(O)CCCC3)cc21
cat: B
//
compound: CN/C(CC(C)(C)O)=N\S(=O)(=O)c1cc2c(cc1Br)CCN2C(C)=O
cat: B
//
compound: CC(=O)N1CCc2cc(Br)c(S(=O)(=O)n3cc(C(C)(C)O)nn3)cc21
cat: C
//
compound: CC(=O)N1CCc2cc(Br)c(S(=O)(=O)n3cc(C(C)O)nn3)cc21 (stereo not shown)
cat: A
//
compound: COC(=O)C/C(N)=N/S(=O)(=O)c1cc2c(cc1Br)CCN2C(C)=O
cat: A

(Q) Quick check: band for CC(=O)N1CCc2cc(Br)c(S(=O)(=O)/N=C(\N)CCO)cc21
(A) B

(Q) Quick check: band for CC(=O)N1CCc2cc(Br)c(S(=O)(=O)/C=C(\N)CC(O)c3ccccc3)cc21 (stereo not shown)
(A) A

(Q) Quick check: band for CC(=O)N1CCc2cc(Cl)c(S(=O)(=O)/N=C(\N)CC(C)(C)O)cc21
(A) C

(Q) Quick check: band for CC(=O)N1CCc2cc(Cl)c(S(=O)(=O)/N=C(\N)CCO)cc21
(A) A

====

target: NDM-1 (Klebsiella pneumoniae, UniProt C7C422); assay: Inhibition of NDM-1 assay (CHROMACEF hydrolysis, absorbance at 442 nm); assay type: biochemical; conditions: enzyme activity with 200 uM inhibitor
This listing pairs molecules with measured Activity w/200 uM [I].
Write the value in % as a bare number.

Below: 3 molecules and their reported Activity w/200 uM [I].
molecule: CC(=O)N1CCc2cc(Br)c(S(=O)(=O)/N=C(\N)CC(C)(C)O)cc21 [drawing 95]
targetSystem: NDM-1 (Klebsiella pneumoniae, UniProt C7C422)
reading: 6.4

molecule: CC(=O)N1CCc2cc(Br)c(S(=O)(=O)n3cc(C4(O)CCCCC4)nn3)cc21
targetSystem: NDM-1 (Klebsiella pneumoniae, UniProt C7C422)
reading: 53

molecule: O=C(O)c1ccc(CN2C(=O)c3ccccc3C2=O)cc1
targetSystem: NDM-1 (Klebsiella pneumoniae, UniProt C7C422)
reading: 38

(Q) Output Activity w/200 uM [I] of CC(=O)N1CCc2cc(Br)c(S(=O)(=O)/N=C(\N)Cc3ccccc3)cc21
(A) 46

(Q) Output Activity w/200 uM [I] of CO/C(CC(C)(C)O)=N\S(=O)(=O)c1cc2c(cc1Br)CCN2C(C)=O
(A) 35

====

molecular target: NDM-1 (Klebsiella pneumoniae); assay: Inhibition of NDM-1 assay (CHROMACEF hydrolysis, absorbance at 442 nm); assay type: biochemical; conditions: enzyme activity with 100 uM inhibitor
This listing pairs compounds with measured Activity w/100 uM [I].
Write the value in % as a bare number.

(Q) Output Activity w/100 uM [I] of CO/C(CC(C)(C)O)=N\S(=O)(=O)c1cc2c(cc1Br)CCN2C(C)=O [MM-94]
(A) 96

(Q) Output Activity w/100 uM [I] of CC(=O)N1CCc2cc(Br)c(S(=O)(=O)/N=C(\N)CC(C)(C)O)cc21 [drawing 95]
(A) 26

(Q) Output Activity w/100 uM [I] of CC(=O)N1CCc2cc(Br)c(S(=O)(=O)/N=C(\N)Cc3ccccc3)cc21 [MM-86]
(A) 63

(Q) Output Activity w/100 uM [I] of O=C(O)c1ccc(CN2C(=O)c3ccccc3C2=O)cc1
(A) 54

(Q) Output Activity w/100 uM [I] of CC(=O)N1CCc2cc(Br)c(S(=O)(=O)n3cc(C4(O)CCCCC4)nn3)cc21
(A) 53

====

This listing pairs molecules with measured IC50.
target: NDM-1 (Klebsiella pneumoniae); test: Inhibition of NDM-1 assay (CHROMACEF hydrolysis, absorbance at 442 nm); format: biochemical; details: fitted IC50 with error; read-out: NDM-1 IC50
Write the value in µM as a bare number.

molecule: CC(=O)N1CCc2cc(Br)c(S(=O)(=O)n3cc(C(C)(C)O)nn3)cc21
reading: 100

(Q) Output IC50 of CC(=O)N1CCc2cc(Br)c(S(=O)(=O)/N=C(\N)Cc3ccccc3)cc21 [drawing 109]
(A) 110

(Q) Output IC50 of CC(=O)N1CCc2cc(Br)c(S(=O)(=O)/N=C(\N)CC(C)(C)O)cc21 [drawing 104]
(A) 22

(Q) Output IC50 of CC(=O)N1CCc2cc(Br)c(S(=O)(=O)n3cc(C(C)O)nn3)cc21 (stereo not drawn)
(A) 2.91

(Q) Output IC50 of CC(=O)N1CCc2cc(Br)c(S(=O)(=O)NC(=O)CC(C)(C)O)cc21
(A) 8.74

(Q) Output IC50 of CC(=O)N1CCc2cc(Br)c(S(=O)(=O)/C=C(\N)CC(O)c3ccccc3)cc21 (stereo not drawn)
(A) 2.62

====

This listing pairs molecules with measured inhibition at 100 µM.
biological target: NDM-1 (Klebsiella pneumoniae); test: Inhibition of NDM-1 assay (CHROMACEF hydrolysis, absorbance at 442 nm); type: biochemical; settings: at 100 μM
Write the value in % as a bare number.

molecule: CC(=O)N1CCc2cc(Br)c(S(=O)(=O)n3cc(C(C)(C)O)nn3)cc21
readoutLabel: inhibition at 100 µM
reading: 47
--
molecule: CC(=O)N1CCc2cc(Br)c(S(=O)(=O)/N=C(\N)Cc3ccccc3)cc21 [drawing 109]
readoutLabel: inhibition at 100 µM
reading: 55.5
--
molecule: CC(=O)N1CCc2cc(Br)c(S(=O)(=O)/N=C(\N)CC(C)(C)O)cc21 [drawing 104]
readoutLabel: inhibition at 100 µM
reading: 74

Please examine the following record next.
(Q) Output inhibition at 100 µM of CC(=O)N1CCc2cc(Br)c(S(=O)(=O)n3cc(-c4ccccc4)nn3)cc21
(A) 25

====

This listing pairs molecules with measured inhibition at 200 µM.
biological target: NDM-1 (Klebsiella pneumoniae); test: Inhibition of NDM-1 assay (CHROMACEF hydrolysis, absorbance at 442 nm); assay type: biochemical; details: at 200 μM
Write the value in % as a bare number.

Below: 4 molecules and their reported inhibition at 200 µM.
molecule: CC(=O)NS(=O)(=O)c1ccc2c(c1)N(C(C)=O)CC2
targetSystem: NDM-1 (Klebsiella pneumoniae)
inhibition at 200 µM, %: 34
--
molecule: CC(=O)N1CCc2cc(Br)c(S(=O)(=O)n3cc(C(C)(C)O)nn3)cc21
targetSystem: NDM-1 (Klebsiella pneumoniae)
inhibition at 200 µM, %: 47
--
molecule: CC(=O)N1CCc2cc(Br)c(S(=O)(=O)/N=C(\N)CC(C)(C)O)cc21 [drawing 104]
targetSystem: NDM-1 (Klebsiella pneumoniae)
inhibition at 200 µM, %: 93.6
--
molecule: CC(=O)N1CCc2cc(Br)c(S(=O)(=O)/N=C(\N)Cc3ccccc3)cc21 [drawing 109]
targetSystem: NDM-1 (Klebsiella pneumoniae)
inhibition at 200 µM, %: 73.8

Please examine the following record next.
(Q) Output inhibition at 200 µM of CC(=O)N1CCc2cc(Br)c(S(=O)(=O)/N=C(\N)CC3(O)CCCC3)cc21
(A) 64.6

====

Target: NDM-1 (Klebsiella pneumoniae)
Assay: Inhibition of NDM-1 assay (CHROMACEF hydrolysis, absorbance at 442 nm)
Assay type: biochemical
Conditions: at 5 μM
Experimental: The ability of the compounds described herein to inhibit NDM-1 was determined in the following way. A Substrate Working Solution was prepared from CRHROMACEF (6 μM) and Tween-20 (0.02% v/v) in water. An Enzyme Working Solution was prepared with NDM-1 (0.5 μg/mL), Hepes (0.1 M), pH 7 and Tween-20 (0.02% v/v). […] […] CHROMACEF 6 M was recorded to start the reaction. […] The change in absorbance ΔΔAbs442nm/min was measured for each inhibitor from the linear slope from each inhibitor concentration.
readoutLabel: inhibition at 5 µM (%)
Write the value in % as a bare number.

molecule: CC(=O)N1CCc2cc(Cl)c(S(=O)(=O)/N=C(\N)CCO)cc21
reading: 78.3

molecule: CC(=O)N1CCc2cc(Br)c(S(=O)(=O)/C=C(\N)CC(O)c3ccccc3)cc21 (centres unmarked)
reading: 75.4

molecule: CC(=O)N1CCc2cc(Br)c(S(=O)(=O)NC(=O)CC(O)c3ccccc3)cc21 (centres unmarked)
reading: 8.1

(Q) Output inhibition at 5 µM of CC(=O)N1CCc2cc(Br)c(S(=O)(=O)n3cc(C(C)O)nn3)cc21 (centres unmarked)
(A) 73.8

(Q) Output inhibition at 5 µM of COC(=O)C/C(N)=N/S(=O)(=O)c1cc2c(cc1Br)CCN2C(C)=O
(A) 77.8

(Q) Output inhibition at 5 µM of CC(=O)N1CCc2cc(Cl)c(S(=O)(=O)NC(=O)CC(O)c3ccccc3)cc21 (centres unmarked)
(A) 15.5

(Q) Output inhibition at 5 µM of CC(=O)N1CCc2cc(Cl)c(S(=O)(=O)/N=C(\N)CC(C)(C)O)cc21
(A) 19.9

(Q) Output inhibition at 5 µM of CC(=O)N1CCc2cc(Cl)c(S(=O)(=O)/C=C(\N)CC(O)c3ccccc3)cc21 (centres unmarked)
(A) 58.4
